Target: b-Raf (V600E) (Homo sapiens (Human), UniProt P15056, V600E)
Sequence (P15056 whole entry V600E): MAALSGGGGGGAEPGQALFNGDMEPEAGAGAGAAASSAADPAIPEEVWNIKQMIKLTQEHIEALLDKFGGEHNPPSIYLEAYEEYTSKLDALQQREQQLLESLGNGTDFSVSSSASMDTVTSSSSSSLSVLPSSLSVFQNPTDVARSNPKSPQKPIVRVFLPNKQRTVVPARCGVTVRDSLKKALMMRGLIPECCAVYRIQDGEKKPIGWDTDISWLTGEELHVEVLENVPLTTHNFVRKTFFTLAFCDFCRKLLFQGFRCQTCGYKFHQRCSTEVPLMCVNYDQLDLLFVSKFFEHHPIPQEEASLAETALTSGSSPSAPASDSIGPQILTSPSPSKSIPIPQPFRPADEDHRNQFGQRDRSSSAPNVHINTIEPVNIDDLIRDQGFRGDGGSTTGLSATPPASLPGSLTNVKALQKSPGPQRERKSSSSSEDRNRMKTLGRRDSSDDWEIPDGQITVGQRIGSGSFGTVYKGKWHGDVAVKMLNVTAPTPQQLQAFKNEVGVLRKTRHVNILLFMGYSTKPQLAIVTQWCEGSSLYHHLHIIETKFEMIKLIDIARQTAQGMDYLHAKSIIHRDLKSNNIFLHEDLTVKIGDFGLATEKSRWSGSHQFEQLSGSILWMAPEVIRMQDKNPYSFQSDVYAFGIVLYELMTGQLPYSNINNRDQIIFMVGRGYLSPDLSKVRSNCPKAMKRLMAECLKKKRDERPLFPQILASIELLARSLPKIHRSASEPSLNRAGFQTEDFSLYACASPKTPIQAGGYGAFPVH
Settings: read-out: b-Raf IC-50; Table 2; AlphaScreen, 3 hours reaction
QUANTITY: log10 of IC50 (log10 of the value in nM)

* Cc1ncc(NC(=O)c2ccnc(C(C)C)c2)cc1-c1cc(N2CCOCC2)c(=O)n(C)c1 | 1.55
* Cc1ncc(NC(=O)c2cccc(C(F)(F)F)c2)cc1-c1cnc(OC(F)F)c(N2CCOCC2)c1 | 0.43
* Cc1ncc(N(C)C(=O)c2cccc(C(F)(F)F)c2)cc1-c1cnc(OC2CCOCC2)c(N2CCOCC2)c1 | 1.80
* Cc1ccc(C(=O)Nc2cccnc2)cc1-c1cc(N2CCOCC2)c(=O)n(C)c1 | 2.30
* Cn1cc(-c2cc(NC(=O)c3ccnc(C(C)(F)F)c3)cnc2Cl)cc(N2CCOCC2)c1=O | 0.65
* Cn1cc(-c2cc(NC(=O)c3ccnc(C(F)(F)F)c3)cnc2Cl)cc(N2CCOCC2)c1=O | 0.63
* Cc1ccc(NC(=O)c2cn(C)nc2C)cc1-c1cc(N2CCOCC2)c(=O)n(C)c1 | 2.00
* Cc1ccc(NC(=O)c2ccnc(C3CC3)c2)cc1-c1cc(N2CCOCC2)c(=O)n(C)c1 | 0.00
* Cc1ncc(NC(=O)c2ccnc(C(C)C)c2)cc1-c1cnc(N(C)C)c(N2CCOCC2)c1 | -0.10
* Cc1ncc(NC(=O)c2cc(CN(C)C)cc(C(F)(F)F)c2)cc1-c1cnc(N(C)C)c(N2CCOCC2)c1 | 0.38
* Cc1ccc(NC(=O)c2cccc(C3(C#N)CC3)c2Cl)cc1-c1cc(N2CCOCC2)c(=O)n(C)c1 | 0.94
* Cn1cc(-c2cc(C(=O)Nc3cccc(C(F)F)c3)ccc2Cl)cc(N2CCOCC2)c1=O | 0.38
* Cc1ccc(NC(=O)c2ccnc(S(C)(=O)=O)c2)cc1-c1ccnc(N2CCOCC2)c1 | 0.28
* Cc1ccc(C(=O)Nc2ccccc2)cc1-c1cc(N2CCOCC2)c(=O)n(C)c1 | 1.53
* Cc1ccc(NC(=O)c2ccnc(C(C)(F)F)c2)cc1-c1cc(N2CCOCC2)c(=O)n(CCC#N)c1 | 0.36
* Cc1ccc(NC(=O)c2ccnc(C(C)(C)C#N)c2)cc1-c1cc(N2CCOCC2)ncn1 | 0.68
